Assay: water solubility
Format: physicochemical
Conditions: at 25° C.
Observable: solubility (mg/mL)
// note: answer is a bare numeric in mg/mL

Recorded result, COc1ccc(-c2cc(=O)c3c(O)cc(OC)c(OS(=O)(=O)O)c3o2)cc1 , solubility: 21

The reported measurements were obtained from patent US7588783B2.
